- target.under.test: hAng-1 (Homo sapiens)
- Sequence (Q15389 16-498): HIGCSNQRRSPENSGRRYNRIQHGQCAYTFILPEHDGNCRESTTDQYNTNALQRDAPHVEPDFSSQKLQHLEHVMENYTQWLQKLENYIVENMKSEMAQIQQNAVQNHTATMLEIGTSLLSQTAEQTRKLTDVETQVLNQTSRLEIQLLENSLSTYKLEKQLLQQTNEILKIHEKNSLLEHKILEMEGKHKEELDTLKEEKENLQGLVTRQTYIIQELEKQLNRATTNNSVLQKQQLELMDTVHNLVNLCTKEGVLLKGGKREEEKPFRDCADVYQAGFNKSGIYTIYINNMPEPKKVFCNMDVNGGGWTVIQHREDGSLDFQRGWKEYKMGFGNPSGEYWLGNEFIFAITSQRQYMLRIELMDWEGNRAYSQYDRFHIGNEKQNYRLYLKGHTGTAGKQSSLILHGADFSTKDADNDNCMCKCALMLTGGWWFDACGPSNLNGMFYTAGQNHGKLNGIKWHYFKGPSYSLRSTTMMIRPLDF
- protocol: Neutralization ELISA (Example 2)
- Format: binding
- test.conditions: Table 5; about 1 nM Tie-2-Fc
Primed or numbered codes have the meaning given here. Where no end group is shown, it is not given here. [ ]: non-standard residue; d: D form. Fc(5) = non-antigen-binding fragment of an antibody (vehicle) fused to the peptide; Fc(9) = antibody Fc fragment, the non-antigen-binding fragment
experimental.readout: hAng-1 IC 50

MGAQ-HQICKWDPWTCKHWLEGGGGG-Fc (MGAQHQICKWDPWTCKHWLEGGGGG[Fc(5)]; not fully specified (bridges); printed as MGAQ-HQICKWDPWTCKHWLEGGGGG-Fc; cysteine pairing not given here) [8-14 (N)] | No In-
MGAQKFNPLDELEETLYEQFTFQQLEGGGGG-Fc [L1 (N)] | No In-
MGAQ-QYGCDGFLYGCMINLE-GGGGG-Fc (MGAQQYGCDGFLYGCMINLEGGGGG-{Fc(9)}; not fully specified (bridges); printed as MGAQ-QYGCDGFLYGCMINLE-GGGGG-Fc; cysteine pairing not given here) [C17 (N)] | No In-

====

- target.under.test: huAng2 (Homo sapiens, UniProt O15123)
- Construct: purchased R&D Systems BNO12103A
- Sequence (O15123 68-496 limits assumed): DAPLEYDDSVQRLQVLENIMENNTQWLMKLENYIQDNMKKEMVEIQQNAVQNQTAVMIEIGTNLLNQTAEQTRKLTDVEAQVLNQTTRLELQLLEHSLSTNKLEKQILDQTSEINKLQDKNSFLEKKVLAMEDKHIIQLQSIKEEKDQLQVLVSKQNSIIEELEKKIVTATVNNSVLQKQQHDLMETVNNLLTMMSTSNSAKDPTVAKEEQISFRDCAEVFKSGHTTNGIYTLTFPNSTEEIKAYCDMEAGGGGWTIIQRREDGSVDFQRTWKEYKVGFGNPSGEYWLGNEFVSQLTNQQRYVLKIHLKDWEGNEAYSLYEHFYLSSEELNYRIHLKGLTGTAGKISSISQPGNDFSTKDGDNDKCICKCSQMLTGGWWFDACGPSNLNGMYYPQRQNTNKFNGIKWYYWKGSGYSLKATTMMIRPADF
- protocol: BIAcore binding to huAng2 (Example 9)
- test.conditions: Table 8
Primed or numbered codes have the meaning given here. Where no end group is shown, it is not given here. [ ]: non-standard residue; d: D form. Fc(8) = Fc vehicle: non-antigen-binding antibody fragment fused to the peptide (peptibody)
experimental.readout: ka

Here's what some known entries look like.
M-Fc-GGGGGAQQEECEWDPWTCEHMLE (M[Fc]GGGGGAQQEECEWDPWTCEHMLE; cysteine pairing not given here) [Con4 (C)] | 530000 M⁻¹ s⁻¹
MGAQ-HTFQPLDELEETLYYQWLYDQL LEGGGGG-Fc (MGAQHTFQPLDELEETLYYQWLYDQLLEGGGGG[Fc]; also: Fc vehicle domain fused (peptibody)) [L1-21 (N)] | 560000 M⁻¹ s⁻¹
M-Fc-GGGGGAQ-PIRQEECDWDPWTCEHMWEV-LE (M[Fc(8)]GGGGGAQPIRQEECDWDPWTCEHMWEVLE; cysteine pairing not given here; also: Fc vehicle fused at position 2) [Con4-44 (C)] | 290000 M⁻¹ s⁻¹
MGAQ-QKFQPLDELEQTLYEQFMLQQA LEGGGGG-Fc (MGAQQKFQPLDELEQTLYEQFMLQQALEGGGGG[Fc]; also: Fc vehicle domain fused (peptibody)) [L1-10 (N)] | 150000 M⁻¹ s⁻¹

Please find the next substance below.
Lookup: ka / huAng2 (Homo sapiens, UniProt O15123) / MGAQ-TNFMPMDDLEQRLYEQFILQQG-LEGGGGG-Fc (MGAQTNFMPMDDLEQRLYEQFILQQGLEGGGGG-Fc) [L1-7 (N)]
370000 M⁻¹ s⁻¹

====

- target.under.test: huAng2 (Homo sapiens, UniProt O15123)
- Construct: purchased R&D Systems BNO12103A
- Sequence (O15123 68-496 limits assumed): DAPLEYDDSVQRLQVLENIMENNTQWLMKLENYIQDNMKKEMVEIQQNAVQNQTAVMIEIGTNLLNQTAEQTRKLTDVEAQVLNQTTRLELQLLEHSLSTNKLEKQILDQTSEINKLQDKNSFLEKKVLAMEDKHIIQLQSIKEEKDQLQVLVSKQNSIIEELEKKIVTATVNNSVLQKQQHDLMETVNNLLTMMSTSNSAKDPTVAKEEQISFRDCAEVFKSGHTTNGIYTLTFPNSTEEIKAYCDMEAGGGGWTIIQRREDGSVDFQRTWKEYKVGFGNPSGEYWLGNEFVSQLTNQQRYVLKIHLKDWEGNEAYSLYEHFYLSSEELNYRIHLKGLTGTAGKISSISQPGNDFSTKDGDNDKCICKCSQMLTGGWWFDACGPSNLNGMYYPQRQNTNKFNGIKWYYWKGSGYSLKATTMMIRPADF
- protocol: BIAcore binding to huAng2 (Example 9)
- test.conditions: Table 8
- Method: Six samples of anti-Ang2 peptibodies were tested for their binding activity to huAng2 (R&D Systems, BNO12103A) on BIAcore. […] To test binding between hAng2 and the captured peptibody, 0.3 nM to 40 nM of huAng2 was injected over the captured peptibody surfaces, and binding sensorgrams were analyzed using BIAevaluation 3.0 (BIAcore Inc.).
Primed or numbered codes have the meaning given here. Where no end group is shown, it is not given here. [ ]: non-standard residue; d: D form. Fc(8) = Fc vehicle: non-antigen-binding antibody fragment fused to the peptide (peptibody)
So basically, if kd comes in under 0.0001 s⁻¹ it's fulfilled, and if it's 0.0001 s⁻¹ or more it's not fulfilled.

Solved entries:
M-Fc-GGGGGAQ-PIRQEECDWDPWTCEHMWEV-LE (M[Fc(8)]GGGGGAQPIRQEECDWDPWTCEHMWEVLE; cysteine pairing not given here; also: Fc vehicle fused at position 2) [Con4-44 (C)] | fulfilled
MGAQ-TNFMPMDDLEQRLYEQFILQQG-LEGGGGG-Fc (MGAQTNFMPMDDLEQRLYEQFILQQGLEGGGGG-Fc) [L1-7 (N)] | fulfilled

Regarding MGAQ-QKFQPLDELEQTLYEQFMLQQA LEGGGGG-Fc (MGAQQKFQPLDELEQTLYEQFMLQQALEGGGGG[Fc]; also: Fc vehicle domain fused (peptibody)) [L1-10 (N)] , kindly confirm whether its kd is beneath 0.0001 s⁻¹.
not fulfilled

Regarding MGAQ-HTFQPLDELEETLYYQWLYDQL LEGGGGG-Fc (MGAQHTFQPLDELEETLYYQWLYDQLLEGGGGG[Fc]; also: Fc vehicle domain fused (peptibody)) [L1-21 (N)] , kindly confirm whether its kd is beneath 0.0001 s⁻¹.
not fulfilled

Regarding M-Fc-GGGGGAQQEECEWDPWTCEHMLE (M[Fc]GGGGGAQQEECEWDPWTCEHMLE; cysteine pairing not given here) [Con4 (C)] , kindly confirm whether its kd is beneath 0.0001 s⁻¹.
not fulfilled
